target: anti-FXI/FXIa antibody NOV1401; assay: cell-based or functional assay
Sequence (VH, as listed by the source, chain 1 of 2): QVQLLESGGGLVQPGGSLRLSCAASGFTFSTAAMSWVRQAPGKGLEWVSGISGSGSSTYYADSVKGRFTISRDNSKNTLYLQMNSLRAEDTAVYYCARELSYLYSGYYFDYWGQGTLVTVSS
Sequence (VL, as listed by the source, chain 2 of 2): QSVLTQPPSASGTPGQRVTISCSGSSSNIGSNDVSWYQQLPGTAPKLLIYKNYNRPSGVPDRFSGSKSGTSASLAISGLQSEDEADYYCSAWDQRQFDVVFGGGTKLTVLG
Quick list: percentage reversal of NOV1401 aPTT prolongation, NOV1401/anti NOV1401 ratio 1/3 (n/n) per entry.
Number only, in %; omit the unit.

| binder | result |
| --- | --- |
| IDT6 anti-NOV1401 Fab (Fab, V domains shown, Human Fab with a lambda light chain; The heavy chain entry is VH-CH1 (Fd); also called antidote) VH: QVQLVQSGAEVKKPGESLKISCKGSGYSFTNYWIGWVRQMPGKGLEWMGIIFPGVSYTKYSPSFQGQVTISADKSISTAYLQWSSLKASDTAMYYCARGSDQTLRGSRAMDYWGQGTLVTVSS VL: QSALTQPASVSGSPGQSITISCTGTSSDVGISNYVSWYQQHPGKAPKLMIYEVSNRPSGVSNRFSGSKSGNTASLTISGLQAEDEADYYCQSYTSLNYVFGGGTKLTVLG | 22 |

We next turn to a different binder, shown below.
Problem: I am curious: what percentage reversal of NOV1401 aPTT prolongation, NOV1401/anti NOV1401 ratio 1/3 (n/n) value has been reported for IDT10 anti-NOV1401 Fab (Fab, V domains shown, Human Fab; The heavy chain entry is VH-CH1 (Fd); also called antidote) VH: QVQLVQSGAEVKKPGASVKVSCKASGYTFTNYYVHWVRQAPGQGLEWMGWINPYSGNTNYAQKFQGRVTMTRDTSISTAYMELSRLRSEDTAVYYCARGASSIRMSYYLDVWGQGTLVTVSS VL: DIQMTQSPSSLSASVGDRVTITCRASQSISNYLNWYQQKPGKAPKLLIYAASNLQSGVPSRFSGSGSGTDFTLTISSLQPEDFATYYCFQYTHSPATFGQGTKVEIKR ?
Solution: 25
